- Tested on: SW480
- Method description: cells
- Format: cell-based
- Conditions: read-out: Basal_Viability ATP SW480 summarized IC50
Each entry below carries its recorded IC50.

{"Molecule": "CN(C)c1ccc(C(=C2C=CC(=[N+](C)C)C=C2)c2ccccc2)cc1 [NCGC00013058-02]", "IC50": "9.22 nM"}
{"Molecule": "Oc1c(I)cc(Cl)c2cccnc12 [NCGC00016391-13]", "IC50": "441 nM"}
{"Molecule": "Oc1c(Br)cc(Br)c2cccnc12 [NCGC00094815-05]", "IC50": "132 nM"}
{"Molecule": "Nc1nc(=S)c2[nH]cnc2[nH]1 [NCGC00263442-01]", "IC50": "402 nM"}
